Tested on: OPM2 cells
experimental protocol: cells
Format: cell-based, human
measurement parameters: Homo sapiens, OPM-2, cells overexpressing stabilized Ikaros mutants (Ikaros-Q146H or Ikaros-G151A); read-out: concentration at which cells had their proliferation inhibited by 50%

{"smi": "N#Cc1ccc(N2CCN(Cc3ccc(COc4cccc5c4CN([C@H]4CCC(=O)NC4=O)C5=O)cc3)CC2)c(F)c1", "IC50": "> 100 nM"}

* * *

# IC50 listing for each entry below
Test system: OPM2 cells
experimental protocol: cells
Format: cell-based, human
measurement parameters: Homo sapiens, OPM-2, overexpressing Aiolos Q147H; read-out: Inhibition of Proliferation of OPM2 Cells IC50

{"compound": "N#Cc1ccc(N2CCN(Cc3ccc(COc4cccc5c4CN([C@H]4CCC(=O)NC4=O)C5=O)cc3)CC2)c(F)c1 [Compound 2]", "endpoint unit": "nM", "IC50": 0.06}
{"compound": "Nc1cccc2c1C(=O)N(C1CCC(=O)NC1=O)C2=O (centres unmarked) [Pomalidomide, pomalidomide, reference compound]", "endpoint unit": "nM", "IC50": 56}
